Experiment: physchem
Conditions: oleyl alcohol, oil or lipid
endpoint: solubility (mg/mL)
Numeric only. Scale: mg/mL

Prompt line: Give a short answer stating reported solubility for CCCN[C@H]1CCc2nc(N)sc2C1 [Pramipexole] .
Response line: 113

---

Assay: physchem
Details: methyl laurate, oil or lipid
endpoint: solubility (µg/mL)
Numeric only. Scale: µg/mL

Prompt line: Give a short answer stating reported solubility for CCCN[C@H]1CCc2nc(N)sc2C1 [Pramipexole] .
Response line: 7070

---

Test: physchem
Conditions: limonene, organic solvent or mixture
endpoint: solubility (µg/mL)
Numeric only. Scale: µg/mL

Prompt line: Give a short answer stating reported solubility for CCCN[C@H]1CCc2nc(N)sc2C1 [Pramipexole] .
Response line: 5340

---

Assay: physchem
Settings: propylene glycol (PG), organic solvent or mixture
Protocol: Numerous permeation enhancers were evaluated to identify suitable permeation enhancers, including permeation enhancers listed in Table 4 below that lists solubility of pramipexole in the respective permeation enhancers.
endpoint: solubility (mg/mL)
Numeric only. Scale: mg/mL

Prompt line: Give a short answer stating reported solubility for CCCN[C@H]1CCc2nc(N)sc2C1 [Pramipexole] .
Response line: 55.6

---

Assay: physchem
Settings: Transcutal P, organic solvent or mixture
endpoint: solubility (mg/mL)
Numeric only. Scale: mg/mL

Prompt line: Give a short answer stating reported solubility for CCCN[C@H]1CCc2nc(N)sc2C1 [Pramipexole] .
Response line: 122

---

Experiment: physchem
Conditions: octanol, organic solvent or mixture
endpoint: solubility (mg/mL)
Numeric only. Scale: mg/mL

Prompt line: Give a short answer stating reported solubility for CCCN[C@H]1CCc2nc(N)sc2C1 [Pramipexole] .
Response line: 113

meta.source: patent US11291656B2
